// reported IC50 per item
Test Target: murine MEKK2 (mMEKK2) (Mus musculus)
Sequence (Q61083 1-619): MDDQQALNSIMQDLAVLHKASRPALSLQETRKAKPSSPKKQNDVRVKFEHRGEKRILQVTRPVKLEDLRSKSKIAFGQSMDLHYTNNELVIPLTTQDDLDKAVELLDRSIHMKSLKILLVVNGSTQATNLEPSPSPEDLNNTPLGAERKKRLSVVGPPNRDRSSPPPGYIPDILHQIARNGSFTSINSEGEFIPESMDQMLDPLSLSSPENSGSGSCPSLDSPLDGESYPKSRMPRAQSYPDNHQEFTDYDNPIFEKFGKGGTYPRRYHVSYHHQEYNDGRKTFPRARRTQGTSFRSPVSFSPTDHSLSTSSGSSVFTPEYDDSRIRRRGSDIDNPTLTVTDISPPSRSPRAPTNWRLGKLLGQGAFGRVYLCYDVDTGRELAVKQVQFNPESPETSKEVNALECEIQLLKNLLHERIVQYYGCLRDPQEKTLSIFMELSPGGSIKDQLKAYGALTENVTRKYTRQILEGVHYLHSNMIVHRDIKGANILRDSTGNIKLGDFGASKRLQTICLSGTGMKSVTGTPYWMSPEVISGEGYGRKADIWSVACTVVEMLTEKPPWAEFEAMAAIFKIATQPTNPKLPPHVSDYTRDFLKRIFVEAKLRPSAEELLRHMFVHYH
Procedure Text: TR-FRET kinase assay (mMEKK2/MBP)
Assay type: biochemical
Details: substrate biotin MBP, 60 minutes at room temperature
Measured Parameter: IC50

1. COc1cccc(-c2nc(SCc3ccc(NC(=O)Nc4cc(C(F)(F)F)ccc4Cl)cc3)[nH]c(=O)c2C#N)c1: < 5 µM
2. COc1cccc(-c2nc(SCc3ccc(NC(=O)c4snnc4C)cc3)[nH]c(=O)c2C#N)c1: < 40 µM
3. COc1cccc(-c2nc(SCc3cccc(NCc4c[nH]c5ccc(Cl)cc45)c3)[nH]c(=O)c2C#N)c1: < 1 µM
4. COc1cccc(-c2nc(SCc3cccc(NCc4cccn4CCC#N)c3)[nH]c(=O)c2C#N)c1: < 20 µM
5. N#Cc1c(-c2cccc(-c3cc4ccccc4s3)c2)nc(SCc2cccc(NC(=O)c3ccc(Cl)c(Cl)c3)c2)[nH]c1=O: < 1 µM
6. COc1cccc(-c2nc(SCc3ccc(NC(=O)NC(c4ccccc4)c4ccccc4)cc3)[nH]c(=O)c2C#N)c1: < 1 µM

====

// reported pIC50 per item
Test Target: murine MEKK2 (mMEKK2) (Mus musculus, UniProt Q61083)
Procedure Text: TR-FRET kinase assay (mMEKK2/MBP)
Assay type: biochemical
Details: substrate biotin MBP, 60 minutes at room temperature
pIC50: −log10 of the molar value.
Measured Parameter: pIC50

1) COc1cccc(-c2nc(SCc3cccc(NC(=O)c4ccc5c(c4)OCO5)c3)[nH]c(=O)c2C#N)c1: > 5.30
2) COc1cccc(-c2nc(SCc3cccc(NC(=O)NCc4ccco4)c3)[nH]c(=O)c2C#N)c1: > 5.00
3) COc1cccc(-c2nc(SCc3cccc(NC(=O)c4cc(Cl)cc(Cl)c4)c3)[nH]c(=O)c2C#N)c1: > 5.30
4) COc1cccc(-c2nc(SCc3cccc(NCc4ccc(C#N)cc4)c3)[nH]c(=O)c2C#N)c1: > 5.00
5) COc1cccc(-c2nc(SCc3cccc(NCc4ccccc4)c3)[nH]c(=O)c2C#N)c1: > 5.30
6) COc1cccc(-c2nc(SCc3cccc(NCc4ccc(N(C)C)c(C#N)c4F)c3)[nH]c(=O)c2C#N)c1: > 5.30
7) COc1cccc(-c2nc(SCc3cccc(NCc4ccc(Oc5cnccn5)cc4)c3)[nH]c(=O)c2C#N)c1: > 4.70
8) COc1cc(CNc2cccc(CSc3nc(-c4cccc(OC)c4)c(C#N)c(=O)[nH]3)c2)cc(OC)c1: > 4.70
